The reported measurements were obtained from ChEMBL document CHEMBL6092167.

Experiment: Hemolytic activity in mouse erythrocyte incubated for 1 hr by microplate reader assay
Assay type: toxicity, cell-based
Non-standard residues stand in square brackets, D forms with d. Residues, ends and D or L forms follow the SMILES beside them. Bip = N[C@@H](Cc1ccc(-c2ccccc2)cc1)C(=O)O; 2Nal = N[C@@H](Cc1ccc2ccccc2c1)C(=O)O

Compound	MHC / µM
CC(C)C[C@H](NC(=O)[C@H](CC(C)C)NC(=O)[C@@H](NC(=O)[C@H](CCCCN)NC(=O)[C@H](Cc1ccc(-c2ccccc2)cc1)NC(=O)[C@H](CCCNC(=N)N)NC(=O)[C@H](CCCCN)NC(=O)[C@H](CC(C)C)NC(=O)[C@H](CC(C)C)NC(=O)CN)[C@@H](C)O)C(N)=O (H-GLLKR[Bip]KTLL-NH2)	145.56
CC(C)C[C@H](NC(=O)[C@H](CC(C)C)NC(=O)[C@H](Cc1ccc(O)cc1)NC(=O)[C@H](CCCCN)NC(=O)[C@H](CC(C)C)NC(=O)[C@H](CCCNC(=N)N)NC(=O)[C@H](CCCCN)NC(=O)[C@H](Cc1ccc2ccccc2c1)NC(=O)[C@H](CC(C)C)NC(=O)CN)C(N)=O (H-GL[2Nal]KRLKYLL-NH2)	78.09
CC(C)C[C@H](NC(=O)[C@H](CC(C)C)NC(=O)[C@H](Cc1ccc(O)cc1)NC(=O)[C@H](CCCCN)NC(=O)[C@H](Cc1ccc(-c2ccccc2)cc1)NC(=O)[C@H](CCCNC(=N)N)NC(=O)[C@H](CCCCN)NC(=O)[C@H](CC(C)C)NC(=O)[C@H](CC(C)C)NC(=O)CN)C(N)=O (H-GLLKR[Bip]KYLL-NH2)	99.53

* * *

MHC by entry:
Experiment: Hemolytic activity in mouse erythrocyte incubated for 1 hr by microplate reader assay
Type: toxicity, cell-based
Observation Type: MHC

> print(dat)
          substance  observation.type  assay.value
1  H-GLWKRLKYLL-NH2               MHC    182.72 µM
2  H-GLLKRWKYLL-NH2               MHC     > 256 µM
3  H-GLWKRLKTLL-NH2               MHC     > 256 µM
4  H-GLLKRWKTLL-NH2               MHC     > 256 µM

* * *

Test system: Pseudomonas aeruginosa
Experiment: Antibacterial activity against Pseudomonas aeruginosa 119 incubated for 18 to 24 hrs by broth microdilution method
Format: functional
Conditions Used: time 18-24 hrs
Non-standard residues stand in square brackets, D forms with d. Residues, ends and D or L forms follow the SMILES beside them. Bip = N[C@@H](Cc1ccc(-c2ccccc2)cc1)C(=O)O; pY = N[C@@H](Cc1ccc(OP(=O)(O)O)cc1)C(=O)O; pT = C[C@@H](OP(=O)(O)O)[C@H](N)C(=O)O; 2Nal = N[C@@H](Cc1ccc2ccccc2c1)C(=O)O

Compound	MIC, µM
CC(C)C[C@H](NC(=O)[C@H](CC(C)C)NC(=O)[C@@H](NC(=O)[C@H](CCCCN)NC(=O)[C@H](Cc1ccc2ccccc2c1)NC(=O)[C@H](CCCNC(=N)N)NC(=O)[C@H](CCCCN)NC(=O)[C@H](CC(C)C)NC(=O)[C@H](CC(C)C)NC(=O)CN)[C@@H](C)OP(=O)(O)O)C(N)=O (H-GLLKR[2Nal]K[pT]LL-NH2)	128
CC(C)C[C@H](NC(=O)[C@H](CC(C)C)NC(=O)[C@H](Cc1ccc(O)cc1)NC(=O)[C@H](CCCCN)NC(=O)[C@H](Cc1ccc(-c2ccccc2)cc1)NC(=O)[C@H](CCCNC(=N)N)NC(=O)[C@H](CCCCN)NC(=O)[C@H](CC(C)C)NC(=O)[C@H](CC(C)C)NC(=O)CN)C(N)=O (H-GLLKR[Bip]KYLL-NH2)	8
NC[C@H]1O[C@H](O[C@H]2[C@H](O)[C@@H](O[C@H]3O[C@H](CO)[C@@H](O)[C@H](N)[C@H]3O)[C@H](N)C[C@@H]2N)[C@H](O)[C@@H](O)[C@@H]1O [KANAMYCIN]	64
CC(C)C[C@H](NC(=O)[C@H](CC(C)C)NC(=O)[C@H](Cc1ccc(O)cc1)NC(=O)[C@H](CCCCN)NC(=O)[C@H](CC(C)C)NC(=O)[C@H](CCCNC(=N)N)NC(=O)[C@H](CCCCN)NC(=O)[C@H](Cc1ccc2ccccc2c1)NC(=O)[C@H](CC(C)C)NC(=O)CN)C(N)=O (H-GL[2Nal]KRLKYLL-NH2)	8
CC(C)C[C@H](NC(=O)[C@H](CC(C)C)NC(=O)[C@H](Cc1ccc(OP(=O)(O)O)cc1)NC(=O)[C@H](CCCCN)NC(=O)[C@H](CC(C)C)NC(=O)[C@H](CCCNC(=N)N)NC(=O)[C@H](CCCCN)NC(=O)[C@H](Cc1ccc2ccccc2c1)NC(=O)[C@H](CC(C)C)NC(=O)CN)C(N)=O (H-GL[2Nal]KRLK[pY]LL-NH2)	32
CC(C)C[C@H](NC(=O)[C@H](CC(C)C)NC(=O)[C@H](Cc1ccc(OP(=O)(O)O)cc1)NC(=O)[C@H](CCCCN)NC(=O)[C@H](Cc1c[nH]c2ccccc12)NC(=O)[C@H](CCCNC(=N)N)NC(=O)[C@H](CCCCN)NC(=O)[C@H](CC(C)C)NC(=O)[C@H](CC(C)C)NC(=O)CN)C(N)=O (H-GLLKRWK[pY]LL-NH2)	128
CC(C)C[C@H](NC(=O)[C@H](CC(C)C)NC(=O)[C@H](Cc1ccc(OP(=O)(O)O)cc1)NC(=O)[C@H](CCCCN)NC(=O)[C@H](Cc1ccc(-c2ccccc2)cc1)NC(=O)[C@H](CCCNC(=N)N)NC(=O)[C@H](CCCCN)NC(=O)[C@H](CC(C)C)NC(=O)[C@H](CC(C)C)NC(=O)CN)C(N)=O (H-GLLKR[Bip]K[pY]LL-NH2)	32

* * *

Experiment: Cytotoxicity against HEK293T cells incubated for 1 hr by fluorescence based microplate reader assay
Type: toxicity, cell-based, HEK-293T
Conditions Used: human
Observation Type: CC50 at 1 h

> print(dat)
          substance  assay.value
1  H-GLWKRLKYLL-NH2       115 µM
2  H-GLWKRLKTLL-NH2     > 128 µM
3  H-GLLKRWKYLL-NH2     > 128 µM
4  H-GLLKRWKTLL-NH2     > 128 µM

* * *

Test system: Staphylococcus aureus
Experiment: Antibacterial activity against methicillin resistant Staphylococcus aureus 48 incubated for 18 to 24 hrs by broth microdilution method
Format: functional
Conditions Used: time 18-24 hrs
MIC by entry:
Observation Type: MIC (µM)

> print(dat)
          substance  unit.info  assay.value
1  H-GLWKRLKTLL-NH2         µM            8
2  H-GLLKRWKYLL-NH2         µM           32
3  H-GLWKRLKYLL-NH2         µM            8
4  H-GLLKRWKTLL-NH2         µM          128

* * *

Experiment: Cytotoxicity against HEK293T cells incubated for 1 hr by fluorescence based microplate reader assay
Type: toxicity, cell-based, HEK-293T
Conditions Used: human
Non-standard residues stand in square brackets, D forms with d. Residues, ends and D or L forms follow the SMILES beside them. Bip = N[C@@H](Cc1ccc(-c2ccccc2)cc1)C(=O)O; pY = N[C@@H](Cc1ccc(OP(=O)(O)O)cc1)C(=O)O; pT = C[C@@H](OP(=O)(O)O)[C@H](N)C(=O)O; 2Nal = N[C@@H](Cc1ccc2ccccc2c1)C(=O)O

Compound	Limit Qualifier	CC50 at 1 h [µM]
CC(C)C[C@H](NC(=O)[C@H](CC(C)C)NC(=O)[C@H](Cc1ccc(OP(=O)(O)O)cc1)NC(=O)[C@H](CCCCN)NC(=O)[C@H](Cc1c[nH]c2ccccc12)NC(=O)[C@H](CCCNC(=N)N)NC(=O)[C@H](CCCCN)NC(=O)[C@H](CC(C)C)NC(=O)[C@H](CC(C)C)NC(=O)CN)C(N)=O (H-GLLKRWK[pY]LL-NH2)	>	128
CC(C)C[C@H](NC(=O)[C@H](CC(C)C)NC(=O)[C@H](Cc1ccc(OP(=O)(O)O)cc1)NC(=O)[C@H](CCCCN)NC(=O)[C@H](CC(C)C)NC(=O)[C@H](CCCNC(=N)N)NC(=O)[C@H](CCCCN)NC(=O)[C@H](Cc1c[nH]c2ccccc12)NC(=O)[C@H](CC(C)C)NC(=O)CN)C(N)=O (H-GLWKRLK[pY]LL-NH2)	=	148
CC(C)C[C@H](NC(=O)[C@H](CC(C)C)NC(=O)[C@H](Cc1ccc(OP(=O)(O)O)cc1)NC(=O)[C@H](CCCCN)NC(=O)[C@H](CC(C)C)NC(=O)[C@H](CCCNC(=N)N)NC(=O)[C@H](CCCCN)NC(=O)[C@H](Cc1ccc2ccccc2c1)NC(=O)[C@H](CC(C)C)NC(=O)CN)C(N)=O (H-GL[2Nal]KRLK[pY]LL-NH2)	=	128
CC(C)C[C@H](NC(=O)[C@H](CC(C)C)NC(=O)[C@@H](NC(=O)[C@H](CCCCN)NC(=O)[C@H](Cc1ccc2ccccc2c1)NC(=O)[C@H](CCCNC(=N)N)NC(=O)[C@H](CCCCN)NC(=O)[C@H](CC(C)C)NC(=O)[C@H](CC(C)C)NC(=O)CN)[C@@H](C)OP(=O)(O)O)C(N)=O (H-GLLKR[2Nal]K[pT]LL-NH2)	>	128
CC(C)C[C@H](NC(=O)[C@H](CC(C)C)NC(=O)[C@H](Cc1ccc(O)cc1)NC(=O)[C@H](CCCCN)NC(=O)[C@H](Cc1ccc(-c2ccccc2)cc1)NC(=O)[C@H](CCCNC(=N)N)NC(=O)[C@H](CCCCN)NC(=O)[C@H](CC(C)C)NC(=O)[C@H](CC(C)C)NC(=O)CN)C(N)=O (H-GLLKR[Bip]KYLL-NH2)	=	82.3
CC(C)C[C@H](NC(=O)[C@H](CC(C)C)NC(=O)[C@@H](NC(=O)[C@H](CCCCN)NC(=O)[C@H](Cc1ccc(-c2ccccc2)cc1)NC(=O)[C@H](CCCNC(=N)N)NC(=O)[C@H](CCCCN)NC(=O)[C@H](CC(C)C)NC(=O)[C@H](CC(C)C)NC(=O)CN)[C@@H](C)O)C(N)=O (H-GLLKR[Bip]KTLL-NH2)	=	127
